From: ChEMBL document CHEMBL5608180

I'd be grateful if you could share measured selectivity ratio for these entries.
experiment summary: Selectivity index, ratio of IC50 for cytotoxicity against human MRC5 cells to IC50 for antiparasitic activity against epimastigote form of Trypanosoma cruzi SOL (TcV)
Type: toxicity, cell-based
test conditions: read-out: Ratio IC50

Prompt: Read the entry O=C(Cn1ccnc1[N+](=O)[O-])NCc1ccccc1 and write its reported selectivity ratio.
Response: 4.2

Prompt: Read the entry C[C@]12SC(c3ccc(N4CCNCC4)cc3)=CC1=C1CCCC1=C1C=C(c3ccc(N4CCNCC4)cc3)S[C@@]12C and write its reported selectivity ratio.
Response: < 1

Prompt: Read the entry C[C@]12SC(c3ccncc3)=CC1=C1CCCC1=C1C=C(c3ccncc3)S[C@@]12C and write its reported selectivity ratio.
Response: < 1

Prompt: Read the entry C[C@]12SC(c3ccc(-c4ccncc4)cc3)=CC1=C1CCCC1=C1C=C(c3ccc(-c4ccncc4)cc3)S[C@@]12C and write its reported selectivity ratio.
Response: < 1

Prompt: Read the entry Cc1sc(-c2ccc(-c3cc[n+](C)cc3)cc2)cc1C1=C(c2cc(-c3ccc(-c4cc[n+](C)cc4)cc3)sc2C)CCC1 and write its reported selectivity ratio.
Response: < 1

Prompt: Read the entry C[C@]12SC(c3ccc4cccnc4c3)=CC1=C1CCCC1=C1C=C(c3ccc4cccnc4c3)S[C@@]12C and write its reported selectivity ratio.
Response: 3.7

Prompt: Read the entry C[C@]12SC(c3ccc(CN4CCCC4)cc3)=CC1=C1CCCC1=C1C=C(c3ccc(CN4CCCC4)cc3)S[C@@]12C and write its reported selectivity ratio.
Response: < 1
